system: UniProtKB Q01726
Sequence (Q01726 whole entry): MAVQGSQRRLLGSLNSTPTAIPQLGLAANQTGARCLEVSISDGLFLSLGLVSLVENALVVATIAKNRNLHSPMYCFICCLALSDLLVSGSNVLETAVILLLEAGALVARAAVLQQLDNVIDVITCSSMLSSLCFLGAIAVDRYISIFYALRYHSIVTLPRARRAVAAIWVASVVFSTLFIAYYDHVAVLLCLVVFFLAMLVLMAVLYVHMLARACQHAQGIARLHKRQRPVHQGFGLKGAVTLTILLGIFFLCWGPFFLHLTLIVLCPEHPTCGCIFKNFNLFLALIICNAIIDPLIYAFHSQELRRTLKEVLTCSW
assay protocol: Agonist activity at human MC1R expressed in HEK2936E cells assessed as cAMP production in presence of IBMX by time resolved fluorescence assay
Format: functional, cell-based
measurement conditions: read-out: pEC50 (converted)
*1 amine or outer side, *2 acyl side, *3 side chain or, on linkers, in order; H or OH if unused. Where a SMILES comes first, the peptide text is derived from it. Bridges are numbered along the chain shown (N, C = ends). [ ]: non-standard residue; d: D form. mXylylene = c1cc(C[*:1])cc(C[*:2])c1; NMeR = CN[C@@H](CCCNC(=N)N)C(=O)O
endpoint name: EC50 (nM)

CC[C@H](C)[C@@H]1NC(=O)[C@@H]2CCCN2C(=O)[C@H](Cc2c[nH]c3ccccc23)NC(=O)[C@H](CCCNC(=N)N)N(C)C(=O)[C@H](Cc2ccccc2)NC(=O)[C@H](Cc2cnc[nH]2)NC(=O)[C@H]([C@@H](C)O)NC(=O)[C@@H](NC(C)=O)CSCc2cccc(c2)CSC[C@@H](C(N)=O)NC1=O (Ac-CTHF[NMeR]WPIC-NH2; linker 1-9 via mXylylene) : 2.95
